Test system: 786-0 renal
Assay: NCI tumour cell line growth inhibition, 48 h
readout.name: TGI

Solved cases below.
                                   compound  reported_result
0  COc1ccc(N2C(=O)/C(=C\c3cccc(Oc4ccccc4)c3)SC2c2ccccc2)cc1 (stereo not given)         > 100 µM
1            COc1ncnc2c1cnn2Cc1cn(CCCCO)nn1         > 100 µM

Prompt: Query (compound): C=C1CC(COc2ccc3c(C)cc(=O)oc3c2)(c2ccccc2)OC1=O (stereo not given) ; field requested: TGI
Response: 2.79 µM

###

Listing of recorded TGI by entry.
Test system: OVCAR-3 ovarian
Assay: NCI tumour cell line growth inhibition, 48 h
Dear colleague, please return just the value in µM, with no unit written.

Solved cases below.
compound	assay.target	reported.result
Cc1ccc(C2CC(c3cccc(Nc4ccncc4)c3)=NN2c2ccccc2)cc1 (stereo unspecified)	OVCAR-3 ovarian	3.13
CCOC(=O)c1csc(NC(=O)COc2cccc(/C=C3\CSc4ccccc4C3=O)c2)n1	OVCAR-3 ovarian	0.332
CCN(CC)CCCC(C)Nc1cc(/C=C/c2ccc(Cl)cc2)nc2cc(N(C)C)ccc12 (stereo unspecified)	OVCAR-3 ovarian	3.49
O=S(=O)(Nc1ccc2ccccc2c1)c1ccc(-c2cnc(C3CC3)o2)cc1	OVCAR-3 ovarian	5.37
CC[C@]12C=CCN3CC[C@@]4(c5ccc(OC)cc5N(C)[C@H]4[C@@](O)(C(=O)OC)[C@@H]1OC(=O)CCC(=O)N[C@H](Cc1c[nH]c4ccccc14)C(=O)OC)[C@@H]32	OVCAR-3 ovarian	16.4
CCN(CC)CC(C)(C)C(=O)/C=C/c1ccc(/C=C/C(=O)C(C)(C)CN(CC)CC)cc1	OVCAR-3 ovarian	1.76
CCN(CC)CCNc1ccc2nnn3c4ccccc4c(=O)c1c23	OVCAR-3 ovarian	23.7
O=c1[nH]c(=O)n(C/C=C/CBr)nc1Br	OVCAR-3 ovarian	23.9

Note: attention shifts to another entry.
Prompt: Recorded TGI for COc1cc(/C=C\c2cc(/C=C\c3ccc(O)c(OC)c3)n(C(=O)CNc3ccc(Cl)cc3)n2)ccc1O with OVCAR-3 ovarian, please?
Response: 8.11

###

System: 786-0 renal
Test: NCI tumour cell line growth inhibition, 48 h
readout.name: GI50

Solved cases below.
>>> df
                                   compound  readout_name  reported_result
0  COc1cc(-c2ccc(NC(=O)NC3CC3)c(OC)c2)ccc1NC(=O)NC1CC1          GI50          29.5 µM
1  COc1ccc2c(c1)N(CCO)C1=C(C(=O)OC1)C2c1ccccc1 (centres undefined)          GI50           2.7 µM

Prompt: Query (compound): CCC[CH2][Sn]([CH2]CCC)([O]C(=O)c1cc(F)cc(F)c1)[O][Sn]([CH2]CCC)([CH2]CCC)[O]C(=O)c1cc(F)cc(F)c1 ; field requested: GI50
Response: 1.27 µM

Prompt: Next: COC(=O)C1=C(O)[C@H](C(=O)OC)[C@]2(O)[C@@H](C(=O)OC)[C@H]1C[C@@H](c1ccc(OC(=O)/C=C/c3ccco3)cc1)[C@@H]2C(=O)OC
Response: 11.8 µM

Prompt: Next: N#Cc1c(N)nc(N2CCSCC2)c(C#N)c1-c1ccc(O)cc1
Response: 13.5 µM

Prompt: Next: O=C(Cn1c(C(=O)c2ccccc2)nc2ccccc21)c1ccc(F)cc1
Response: 20.8 µM

Prompt: Next: Cc1nnc(-c2ccc(C)c(-c3ccc(C(=O)NCc4ccc(Cl)cc4)cc3)c2)o1
Response: 18.7 µM

Prompt: Next: O=C(Nc1nc(-c2ccc(Cl)cc2)nc2c1sc(=S)n2-c1ccccc1)C(F)(F)F
Response: 1.67 µM

Prompt: Next: Cc1cc(NNC(=O)c2ccccc2O)nc(Nc2nc3ccccc3o2)n1
Response: 1.8 µM

###

The following compounds have recorded GI50 on MDA-MB-435.

Prompt: Query (compound): CCc1nc2cc(/C=C/C(=O)NO)ccc2c(=O)n1CCc1ccc(F)cc1 ; field requested: GI50
Response: 1.7 µM

Prompt: Next: O=C(Nc1nc(-c2ccc(Cl)cc2)nc2c1sc(=S)n2-c1ccccc1)C(F)(F)F
Response: 5.4 µM

Prompt: Next: CN1CCN(Cc2ccc(NC(=O)c3cncc(C#Cc4cnn5ccccc45)c3)cc2C(F)(F)F)CC1
Response: 0.729 µM

Prompt: Next: O=C(O)Cn1c2c(c3c(O)cccc31)C(=O)c1ccccc1-2
Response: > 100 µM

Prompt: Next: O=C(Cn1c(C(=O)c2ccccc2)nc2ccccc21)c1ccc(F)cc1
Response: 1.19 µM

Prompt: Next: O=C(Nc1ccc2c(c1)OCO2)C(=O)c1c[nH]c2cc(F)ccc12
Response: 0.854 µM

Prompt: Next: Cc1cn2c(/C=C3/C(=O)Nc4ccc(F)cc43)c(C)nc2s1
Response: 1.26 µM

Prompt: Next: CCOC(=O)c1csc(NC(=O)COc2cccc(/C=C3\CSc4ccccc4C3=O)c2)n1
Response: 2.05 µM

Prompt: Next: CSc1ccc(C2=NN(C(C)=O)C(c3ccc(F)cc3)C2)cc1 (centres undefined)
Response: 15 µM

###

System: EKVX NSCLC
Assay: NCI tumour cell line growth inhibition, 48 h
Binned TGI; ranges: 0: < 20 µM; 1: ≥ 20 µM and < 30 µM; 2: ≥ 30 µM

>>> print(df.to_string())
                                   molecule  label
0  CCOC(=O)C1SC(=Nc2ccc(Cl)cc2C)N=C1C (configuration not stated)      2
1  Cc1ccc(NC(=O)CC/C(CC(=O)C(C)(C)C)=N\Nc2ccc([N+](=O)[O-])cc2[N+](=O)[O-])cc1C      2
2  CC(CCCC1SCC2NC(=O)NC21)C(=O)O (configuration not stated)      2
3  C=C1C(=O)OC2CC3(C)CCCC(C)C3=CC12 (configuration not stated)      1

Prompt: Quick check: band for O=c1[nH]c(=O)n(C/C=C/CBr)nc1Br
Response: 1

Prompt: Next: CN(C)CCCNC(=O)c1cc(NC(=O)c2cc(NC(=O)[C@@H]3C[C@H]3C(=O)Nc3cc(C(=O)Nc4cc(C(=O)NCCCN(C)C)n(C)c4)n(C)c3)cn2C)cn1C
Response: 2

Prompt: Next: Cc1cc(C)n(CN(Cn2nc(C)cc2C)c2ccccc2)n1
Response: 2

Prompt: Next: CCCN1C(=O)/C(=C/c2ccc(O)cc2)SC1=Nc1ccc(OC)cc1
Response: 1

###

Tested on: SNB-75 CNS
Assay: NCI tumour cell line growth inhibition, 48 h
Listing of recorded TGI by entry.

Solved cases below.
>>> df
                                   molecule  reported_result
0  CO[C@@H]1[C@H]2[C@@H](C)c3ccoc3C[C@@H]2[C@@]2(C)CC[C@H](OC(=O)c3ccccc3)[C@](C)(C(=O)O)[C@]2(O)[C@@H]1OC(=O)c1ccccc1          > 50 µM
1  O=C1C(=O)N(c2cccc(C(F)(F)F)c2)C(=O)C(=O)C1c1nc2ccccc2s1         > 100 µM
2        COc1ccc(CNc2cnc3cc(N)cc(N)c3n2)cc1         > 100 µM
3  O=[As](O)(O)c1ccc2nc3cc([As](=O)(O)O)ccc3nc2c1         > 100 µM
4  Cc1cc(C)n(C(=O)CSc2nnc(SCC(=O)n3nc(C)cc3C)s2)n1         > 100 µM

Prompt: Query (molecule): COc1ccc(/C=C2\CC(C)CC3C2=NN(c2ccccc2)C3c2ccc(OC)c(OC)c2)cc1OC (centres undefined) ; field requested: TGI
Response: 18.5 µM

Prompt: Next: CC(=O)OCC(OC(C)=O)C(OC(C)=O)C(OC(C)=O)C(/C=N\Nc1nc2ccccc2c(=O)[nH]1)=N/Nc1nc2ccccc2c(=O)[nH]1 (centres undefined)
Response: > 100 µM

Prompt: Next: O=C(c1ccccc1)c1c(CC(O)c2ccccc2)n(C(=O)c2ccccc2)c2ccccc12 (centres undefined)
Response: 58.2 µM

Prompt: Next: Nc1ccccc1N=Nc1c(S(=O)(=O)O)cc2cc(S(=O)(=O)O)cc(O)c2c1O
Response: > 100 µM

###

System: K-562 leukemia
Assay: NCI tumour cell line growth inhibition, 48 h; in the data active means GI50 below about 0.43 µM; inactive means the rest
Where a SMILES comes first, the peptide text is derived from it. [ ]: non-standard residue; d: D form. 2Nal = N[CH](Cc1ccc2ccccc2c1)C(=O)O
Respond only with the outcome that fits, drawn from active, inactive

# count of solved cases: 3
compound	label
CC(C)C(NC(=O)C(CCCCN)NC(=O)C(Cc1c[nH]c2ccccc12)NC(=O)C(Cc1ccc(O)cc1)NC(=O)C(CS)NC(=O)C(N)Cc1ccc2ccccc2c1)C(=O)NC(CS)C(=O)NC(C(N)=O)C(C)O (stereo unspecified) (H-[2Nal]CYWKVCT-NH2; configuration not given here)	inactive
CC(C)(C)NC/C(=C\c1ccccc1)C(=O)c1ccccc1	inactive
CC[C@]12C=CCN3CC[C@@]4(c5ccc(OC)cc5N(C)[C@H]4[C@@](O)(C(=O)OC)[C@@H]1OC(=O)CCC(=O)N[C@H](Cc1c[nH]c4ccccc14)C(=O)OC)[C@@H]32	inactive

Prompt: What is the recorded call for this compound in the test? CCOC(=O)c1csc(NC(=O)COc2cccc(/C=C3\CSc4ccccc4C3=O)c2)n1
Response: inactive

Prompt: Next: CC(C)CCC(=O)[C@@H](C)[C@H]1[C@@H](OC2OCC(O)C(O)C2NS(C)(=O)=O)C[C@H]2[C@@H]3CC=C4C[C@@H](O)CC[C@]4(C)[C@H]3CC[C@]12C (stereo partly specified)
Response: inactive

Prompt: Next: CCC[CH2][Sn]([CH2]CCC)([O]C(=O)c1cc(F)cc(F)c1)[O][Sn]([CH2]CCC)([CH2]CCC)[O]C(=O)c1cc(F)cc(F)c1
Response: active
